- Test Target: T1, human HGF (R&D Systems, 294-HG/CF) (human, UniProt P14210 32-728)
- T1 construct: The entry begins at QRKRR, without signal peptide; Amine-coupled to the chip in SPR and biotinylated in AlphaScreen; also called rec hHGF (R&D systems)
- T1 sequence (P14210 32-728 limits assumed): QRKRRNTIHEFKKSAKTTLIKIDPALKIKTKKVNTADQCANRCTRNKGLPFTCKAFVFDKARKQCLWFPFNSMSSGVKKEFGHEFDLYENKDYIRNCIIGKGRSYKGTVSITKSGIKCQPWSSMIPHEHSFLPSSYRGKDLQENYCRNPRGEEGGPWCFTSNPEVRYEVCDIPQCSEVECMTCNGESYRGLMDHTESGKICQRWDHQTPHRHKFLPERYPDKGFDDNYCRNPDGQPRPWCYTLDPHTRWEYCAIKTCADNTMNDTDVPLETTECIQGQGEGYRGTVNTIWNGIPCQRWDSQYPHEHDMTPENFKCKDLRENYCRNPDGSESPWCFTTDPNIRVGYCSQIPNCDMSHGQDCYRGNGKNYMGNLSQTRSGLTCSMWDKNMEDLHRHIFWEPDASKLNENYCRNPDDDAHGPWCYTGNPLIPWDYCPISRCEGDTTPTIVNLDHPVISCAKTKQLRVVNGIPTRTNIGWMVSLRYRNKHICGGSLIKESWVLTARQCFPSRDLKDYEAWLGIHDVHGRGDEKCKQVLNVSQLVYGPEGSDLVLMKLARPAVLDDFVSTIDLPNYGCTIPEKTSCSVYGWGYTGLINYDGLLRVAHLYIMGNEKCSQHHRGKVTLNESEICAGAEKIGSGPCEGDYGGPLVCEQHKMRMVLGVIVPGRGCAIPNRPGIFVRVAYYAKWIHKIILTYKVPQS
- Assay Notes: AlphaScreen competition, biotinylated HGF and c-Met-Fc, dilution series of purified Nanobody
Readout: IC50 (nM)

Binder: 9H5 (VHH, anti-HGF Nanobody clone; not shown: c-myc and His6 tags) VHH: EVQLVESGGGLVQPGGSLRLSCAASGSIFNLNPMGWYRQAPGKQRELVATVTGEGRTNYSDSVKGRFTISRDNAKNTVYLQMNSLKPEDTAVYYCNAAFWAYDDAYWGQGTQVTVSS
Unit Name: nM
IC50: 2.1

[1] 6G6 (VHH, anti-HGF Nanobody clone; not shown: c-myc and His6 tags) VHH: EVQLVESGGGLAQAGGSLRLSCAASGRSLSNYAMGWFRQAPGKEREIVCAISRSGSITTYADSVKGRFTIAKDNAANTVYLQMNSLKPEDTAAYYCAADPMYYGIPDQNWDYWGQGTQVTVSS
[2] 6H6 (VHH, anti-HGF Nanobody clone; not shown: c-myc and His6 tags) VHH: EVQLMESGGGLVQAGGSLRLSCAASGRTFSSYAMGWFRQAPGKERENVAAISSSGGYTYYPDSVKGRFTISRDTAKNTVYLQMNSLKPDDTAVYYCAGTQPNFGWQLLLLQTEYDYWGQGTQVTVSS
[3] 9G6 (VHH, anti-HGF Nanobody clone; not shown: c-myc and His6 tags) VHH: EVQLVESGGGLVQAGGSLRLSCAASGRTLSDYTMGWFRQAPGKEREFVARINTGGPITSYSDSVKGRFTISRDNAKNTVYLQMNSLKPEDTAVYNCAARLPTKMSPRDYSSYAYRGQGTQVTVSS
Prompt: Ascending sort, IC50. // rank by listing labels in the order requested
Completion: 1, 3, 2
(1: 2.8 nM, 3: 6.6 nM, 2: 26.7 nM)
